- TEST_SYSTEM: T1, HLA-B8 (B*0801) (human)
- T1 construct: Acid-stripped B-LCL
- TEST_DETAILS: cell competition vs FLRGRAC(FI)GL, stripped Vavy B-LCL, FACS
pIC50: −log10 of the molar value.

| BINDER | pIC50 |
| --- | --- |
| INLRRLLL (also called start 260) [PRAME peptide INLRRLLL] | > 6.00 |
| RPRRWKLQVL [PRAME peptide RPRRWKLQVL] | > 6.00 |
| YLHARLREL (also called start 462) [PRAME peptide YLHARLREL] | > 6.00 |
| QMINLRRLLL (also called start 258) [PRAME peptide QMINLRRLLL] | 5.78 |
| MINLRRLL (also called start 259) [PRAME peptide MINLRRLL] | > 6.00 |
